Plant response rating, Morningglory values, listed per item
# Test system: pitted morningglory
# Test Summary: Test F preemergence test
# Type: in vivo, Ipomoea lacunosa
# Settings: Preemergence; 31 g ai/ha; scale 0 to 100
Observation Type: Plant response rating, Morningglory

{"Molecule": "Cn1nc(C(F)(F)F)c(C[S+]([O-])c2cccc[n+]2[O-])c1Cl (stereo not drawn)", "Observation Type": "Plant response rating, Morningglory", "Result": 0}
{"Molecule": "Cn1nc(C(F)(F)F)c(CS(=O)(=O)c2cccc[n+]2[O-])c1OC(F)F", "Observation Type": "Plant response rating, Morningglory", "Result": 0}
{"Molecule": "Cc1cc[n+]([O-])c([S+]([O-])Cc2c(C(F)(F)F)nn(C)c2Cl)c1 (racemic)", "Observation Type": "Plant response rating, Morningglory", "Result": 15}
{"Molecule": "CC(c1c(C(F)(F)F)nn(C)c1OC(F)F)S(=O)(=O)c1cccc[n+]1[O-] (stereo not drawn)", "Observation Type": "Plant response rating, Morningglory", "Result": 50}
{"Molecule": "CCn1nc(C(F)(F)F)c(CS(=O)(=O)c2cc(C)cc[n+]2[O-])c1OCC(F)(F)F", "Observation Type": "Plant response rating, Morningglory", "Result": 0}
{"Molecule": "Cc1cc[n+]([O-])c(S(=O)(=O)Cc2c(C(F)(F)F)nn(C)c2Cl)c1", "Observation Type": "Plant response rating, Morningglory", "Result": 0}

###

Plant response rating, Morningglory values, listed per item
# Test system: morningglory
# Test Summary: Test A pre-/postemergence greenhouse test
# Type: in vivo, Ipomoea spp.
# Settings: Preemergence, 500 g ai/ha; 0 to 100 scale where 0 is no effect and 100 is complete control
Observation Type: Plant response rating, Morningglory

{"Compound": "Cc1cc[n+]([O-])c(S(=O)(=O)Cc2c(C(F)(F)F)nn(CC(F)(F)F)c2Cl)c1 [Compound 49]", "Observation Type": "Plant response rating, Morningglory", "Numeric Value": 30}
{"Compound": "Cn1nc(C(F)(F)F)c(C[S+]([O-])c2c(F)ccc[n+]2[O-])c1Cl (stereo not shown) [Compound 52]", "Observation Type": "Plant response rating, Morningglory", "Numeric Value": 40}
{"Compound": "CC(Oc1c(CS(=O)(=O)c2ccc(Cl)c[n+]2[O-])c(C(F)(F)F)nn1C)C(F)(F)F (stereo not shown) [Compound 95]", "Observation Type": "Plant response rating, Morningglory", "Numeric Value": 20}
{"Compound": "Cc1cc[n+]([O-])c([S+]([O-])Cc2c(C(F)(F)F)nn(C)c2Cl)c1 (racemic) [Compound 20]", "Observation Type": "Plant response rating, Morningglory", "Numeric Value": 80}

###

# System: common (oilseed) sunflower
# Test Summary: Test C pre-/postemergence test
# Assay type: in vivo, Helianthus annuus
# Settings: preemergence, 250 g ai/ha; scale 0 (no effect) to 100 (complete control)

{"Compound": "Cn1nc(OC(F)F)c(CS(=O)(=O)c2cccc[n+]2[O-])c1C(F)(F)F", "Tested System": "common (oilseed) sunflower", "Sunflower plant response rating": 45}
{"Compound": "Cn1nc(C(F)(F)F)c(CS(=O)(=O)c2ccc(Cl)c[n+]2[O-])c1OCC(F)(F)F", "Tested System": "common (oilseed) sunflower", "Sunflower plant response rating": 40}
{"Compound": "Cn1nc(C(F)(F)F)c(C(Cl)S(=O)(=O)c2cccc[n+]2[O-])c1OC(F)F (stereo not shown)", "Tested System": "common (oilseed) sunflower", "Sunflower plant response rating": 0}
{"Compound": "CC(Oc1c(CS(=O)(=O)c2cccc[n+]2[O-])c(C(F)(F)F)nn1C)C(F)(F)F (stereo not shown)", "Tested System": "common (oilseed) sunflower", "Sunflower plant response rating": 50}
{"Compound": "Cc1cc[n+]([O-])c(S(=O)(=O)C(Cl)c2c(C(F)(F)F)nn(C)c2OCC(F)(F)F)c1 (racemic)", "Tested System": "common (oilseed) sunflower", "Sunflower plant response rating": 40}
{"Compound": "Cn1nc(C(F)(F)F)c(C[S+]([O-])c2ccc(F)c[n+]2[O-])c1OC(F)F (stereo not shown)", "Tested System": "common (oilseed) sunflower", "Sunflower plant response rating": 85}
{"Compound": "Cn1nc(C(F)(F)C(F)(F)F)c(C[S+]([O-])c2ccc(Cl)c[n+]2[O-])c1OCC(F)(F)F (stereo not shown)", "Tested System": "common (oilseed) sunflower", "Sunflower plant response rating": 85}
{"Compound": "CCc1cc[n+]([O-])c(S(=O)(=O)Cc2c(C(F)(F)F)nn(C)c2OC(F)F)c1", "Tested System": "common (oilseed) sunflower", "Sunflower plant response rating": 80}
{"Compound": "Cn1nc(C(F)(F)F)c(C[S+]([O-])c2ccc(F)c[n+]2[O-])c1OCC(F)(F)F (stereo not shown)", "Tested System": "common (oilseed) sunflower", "Sunflower plant response rating": 100}
{"Compound": "Cn1nc(C(F)(F)F)c(C[S+]([O-])c2ccc(Cl)c[n+]2[O-])c1OCC(F)(F)F (racemic)", "Tested System": "common (oilseed) sunflower", "Sunflower plant response rating": 80}

###

# System: crabgrass
# Test Summary: Test A pre-/postemergence greenhouse test
# Assay type: in vivo, Digitaria sanguinalis
# Settings: Preemergence, 500 g ai/ha; 0 to 100 scale where 0 is no effect and 100 is complete control
# Excerpt: Seeds of barnyardgrass (Echinochloa crus-galli), crabgrass (Digitaria sanguinalis), giant foxtail (Setaria faberi), morningglory (Ipomoea spp.), redroot pigweed (Amaranthus retroflexus), velvetleaf (Abutilon theophrasti), wheat (Triticum aestivum), and corn (Zea mays) were planted into a blend of loam soil and sand and treated preemergence with a directed soil spray using test compounds formulated in a non-phytotoxic solvent mixture which included a surfactant. […]
Plant response rating, Crabgrass, Large values, listed per item
Observation Type: Plant response rating, Crabgrass, Large

{"Molecule": "Cc1cc[n+]([O-])c([S+]([O-])Cc2c(C(F)(F)F)nn(C)c2OC(C)C(F)(F)F)c1 (stereo not drawn) [Compound 88]", "Tested System": "crabgrass", "Observation Type": "Plant response rating, Crabgrass, Large", "Numeric Value": 90}
{"Molecule": "Cc1cc[n+]([O-])c(S(=O)(=O)Cc2c(C(F)(F)F)nn(C)c2OC(F)F)c1 [Compound 2]", "Tested System": "crabgrass", "Observation Type": "Plant response rating, Crabgrass, Large", "Numeric Value": 100}
{"Molecule": "Cn1nc(C(F)(F)F)c(C(Cl)S(=O)(=O)c2cccc[n+]2[O-])c1OC(F)F (stereo not drawn) [Compound 51]", "Tested System": "crabgrass", "Observation Type": "Plant response rating, Crabgrass, Large", "Numeric Value": 90}
{"Molecule": "CCn1nc(C(F)(F)F)c(C[S+]([O-])c2cc(C)cc[n+]2[O-])c1OCC(F)(F)F (racemic) [Compound 66]", "Tested System": "crabgrass", "Observation Type": "Plant response rating, Crabgrass, Large", "Numeric Value": 100}
{"Molecule": "CCn1nc(C(F)(F)F)c(CS(=O)(=O)c2cc(C)cc[n+]2[O-])c1OCC(F)(F)F [Compound 64]", "Tested System": "crabgrass", "Observation Type": "Plant response rating, Crabgrass, Large", "Numeric Value": 100}
{"Molecule": "Cn1nc(C(F)(F)F)c(C[S+]([O-])c2ccc(Cl)c[n+]2[O-])c1Cl (racemic) [Compound 17]", "Tested System": "crabgrass", "Observation Type": "Plant response rating, Crabgrass, Large", "Numeric Value": 100}

###

# Test system: morningglory
# Test Summary: Test C pre-/postemergence test
# Format: in vivo, Ipomoea coccinea
# Settings: Preemergence, 31 g ai/ha; scale 0 to 100 (0 no effect, 100 complete control)
Plant response rating, Morningglory values, listed per item

{"Compound": "Cn1nc(C(F)(F)F)c(C(Cl)S(=O)(=O)c2cccc[n+]2[O-])c1OCC(F)(F)F (racemic)", "Plant response rating, Morningglory": 0}
{"Compound": "CCc1cc[n+]([O-])c([S+]([O-])Cc2c(C(F)(F)F)nn(C)c2OCC(F)(F)F)c1 (stereo not shown)", "Plant response rating, Morningglory": 50}
{"Compound": "Cn1nc(C(F)(F)F)c(CS(=O)(=O)c2cccc[n+]2[O-])c1OCC(F)(F)F", "Plant response rating, Morningglory": 0}
{"Compound": "Cc1cc([S+]([O-])Cc2c(C(F)(F)F)nn(C)c2OCC(F)(F)F)[n+]([O-])cc1Cl (stereo not shown)", "Plant response rating, Morningglory": 0}

###

Plant response rating, Goosegrass values, listed per item
# Test system: goosegrass
# Test Summary: Test F preemergence test
# Type: in vivo, Eleusine indica
# Settings: 16 g ai/ha, preemergence; scale 0 to 100

{"Molecule": "CCn1nc(C(F)(F)F)c(CS(=O)(=O)c2cc(C)cc[n+]2[O-])c1OCC(F)(F)F [Compound 64]", "Tested System": "goosegrass", "Plant response rating, Goosegrass": 75}
{"Molecule": "Cn1nc(C(F)(F)F)c(C[S+]([O-])c2ccc(Cl)c[n+]2[O-])c1OCC(F)F (stereo not shown) [Compound 85]", "Tested System": "goosegrass", "Plant response rating, Goosegrass": 35}
{"Molecule": "Cn1nc(C(F)(F)F)c(C[S+]([O-])c2ccc(F)c[n+]2[O-])c1OCC(F)(F)F (stereo not shown) [Compound 67]", "Tested System": "goosegrass", "Plant response rating, Goosegrass": 50}
{"Molecule": "CCn1nc(C(F)(F)F)c(CS(=O)(=O)c2cccc[n+]2[O-])c1OCC(F)(F)F [Compound 63]", "Tested System": "goosegrass", "Plant response rating, Goosegrass": 80}
